target-entity: UniProt P29317
Sequence (P29317 whole entry): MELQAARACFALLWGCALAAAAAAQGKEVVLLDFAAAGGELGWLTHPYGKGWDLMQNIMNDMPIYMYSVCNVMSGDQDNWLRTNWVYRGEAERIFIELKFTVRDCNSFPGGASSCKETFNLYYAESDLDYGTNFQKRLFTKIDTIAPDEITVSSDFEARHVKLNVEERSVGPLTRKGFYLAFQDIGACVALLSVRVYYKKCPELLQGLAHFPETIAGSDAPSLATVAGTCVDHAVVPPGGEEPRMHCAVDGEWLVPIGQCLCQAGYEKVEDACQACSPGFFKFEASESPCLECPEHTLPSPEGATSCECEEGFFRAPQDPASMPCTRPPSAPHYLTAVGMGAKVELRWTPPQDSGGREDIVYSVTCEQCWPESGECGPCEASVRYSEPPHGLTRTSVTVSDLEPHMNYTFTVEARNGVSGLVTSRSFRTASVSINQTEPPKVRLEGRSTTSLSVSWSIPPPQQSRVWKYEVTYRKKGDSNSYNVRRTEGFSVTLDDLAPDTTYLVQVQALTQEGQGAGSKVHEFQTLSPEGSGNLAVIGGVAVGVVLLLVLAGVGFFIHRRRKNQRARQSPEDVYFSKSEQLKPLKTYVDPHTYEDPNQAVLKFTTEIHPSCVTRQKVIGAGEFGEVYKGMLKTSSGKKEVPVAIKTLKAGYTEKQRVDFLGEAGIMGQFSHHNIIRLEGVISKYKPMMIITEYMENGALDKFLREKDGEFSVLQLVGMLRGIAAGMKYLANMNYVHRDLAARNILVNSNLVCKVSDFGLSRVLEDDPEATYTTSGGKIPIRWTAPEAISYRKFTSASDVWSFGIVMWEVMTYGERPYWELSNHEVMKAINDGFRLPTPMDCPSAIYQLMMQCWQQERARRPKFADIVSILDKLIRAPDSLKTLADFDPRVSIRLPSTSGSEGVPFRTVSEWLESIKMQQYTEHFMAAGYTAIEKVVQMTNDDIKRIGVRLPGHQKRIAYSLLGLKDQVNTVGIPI
experimental-details: Inhibition of human EPHA2 assessed as residual activity at 0.1 uM relative to control
Measured Activity, listed per entry.
measurement-label: Activity (%)

> print(dat)
                  compound.structure.string  result.unit  measured.value
1  COc1ccc2[nH]cc(/C=C3\C(=O)Nc4ccc(S(N)(=O)=O)cc43)c2c1            %             110
2  Cn1cc(/C=C2\C(=O)Nc3ccc(S(N)(=O)=O)cc32)c2ccccc21            %              99
3  COc1ccc2c(c1)c(/C=C1\C(=O)Nc3ccc(S(N)(=O)=O)cc31)cn2C            %              98
4  CN(C)S(=O)(=O)c1ccc2c(c1)/C(=C/c1cn(C)c3ccc(O)cc13)C(=O)N2            %             111
5  COc1ccc2c(c1)c(/C=C1\C(=O)Nc3ccc(S(=O)(=O)N(C)C)cc31)cn2C            %             106
6  CNS(=O)(=O)c1ccc2c(c1)/C(=C/c1cn(C)c3ccc(OC)cc13)C(=O)N2            %             100

----------
target-entity: Calcium/calmodulin-dependent protein kinase type 1D (Homo sapiens) (UniProt Q8IU85)
Sequence (Q8IU85 whole entry, looked up): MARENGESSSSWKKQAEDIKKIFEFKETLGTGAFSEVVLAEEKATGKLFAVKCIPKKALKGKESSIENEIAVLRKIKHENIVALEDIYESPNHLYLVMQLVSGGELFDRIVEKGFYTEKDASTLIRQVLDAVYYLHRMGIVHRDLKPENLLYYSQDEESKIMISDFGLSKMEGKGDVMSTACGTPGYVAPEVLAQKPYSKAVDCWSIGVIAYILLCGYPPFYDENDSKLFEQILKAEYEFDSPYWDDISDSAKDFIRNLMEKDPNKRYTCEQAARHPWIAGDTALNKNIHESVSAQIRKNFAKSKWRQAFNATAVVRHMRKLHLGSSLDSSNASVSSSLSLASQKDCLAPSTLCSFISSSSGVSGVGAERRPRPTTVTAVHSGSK
experimental-details: Inhibition of human CAMK1D assessed as residual activity at 1 uM relative to control
Measured Activity, listed per entry.
measurement-label: Activity (%)

> print(dat)
                  compound.structure.string  result.unit  measured.value
1  Cn1cc(/C=C2\C(=O)Nc3ccc(S(N)(=O)=O)cc32)c2ccccc21            %              90
2  COc1ccc2c(c1)c(/C=C1\C(=O)Nc3ccc(S(N)(=O)=O)cc31)cn2C            %              97
3  COc1ccc2[nH]cc(/C=C3\C(=O)Nc4ccc(S(N)(=O)=O)cc43)c2c1            %              94
4  CNS(=O)(=O)c1ccc2c(c1)/C(=C/c1cn(C)c3ccc(OC)cc13)C(=O)N2            %              80
5  CN(C)S(=O)(=O)c1ccc2c(c1)/C(=C/c1cn(C)c3ccc(O)cc13)C(=O)N2            %             103
6  COc1ccc2c(c1)c(/C=C1\C(=O)Nc3ccc(S(=O)(=O)N(C)C)cc31)cn2C            %              94

----------
Species: Homo sapiens
experimental-details: Inhibition of human S6K assessed as residual activity at 1 uM relative to control
Measured Activity, listed per entry.
measurement-label: Activity

> print(dat)
                  compound.structure.string  measured.value
1  CNS(=O)(=O)c1ccc2c(c1)/C(=C/c1cn(C)c3ccc(OC)cc13)C(=O)N2             83%
2  COc1ccc2c(c1)c(/C=C1\C(=O)Nc3ccc(S(=O)(=O)N(C)C)cc31)cn2C             85%
3  Cn1cc(/C=C2\C(=O)Nc3ccc(S(N)(=O)=O)cc32)c2ccccc21             81%
4  COc1ccc2[nH]cc(/C=C3\C(=O)Nc4ccc(S(N)(=O)=O)cc43)c2c1             70%
5  COc1ccc2c(c1)c(/C=C1\C(=O)Nc3ccc(S(N)(=O)=O)cc31)cn2C             92%
6  CN(C)S(=O)(=O)c1ccc2c(c1)/C(=C/c1cn(C)c3ccc(O)cc13)C(=O)N2             92%

# credit: ChEMBL document CHEMBL4765228
